# System: giant foxtail (Setaria faberii)
# method summary: Test B pre-/postemergence plant response
# Assay type: in vivo
# assay context: Postemergence, 31 g ai/ha; 0 to 100 scale (0 no effect, 100 complete control)
Measured Plant response rating, Foxtail, Giant values are reported for all entries that follow.
endpoint: Plant response rating, Foxtail, Giant

> print(dat)
                                   molecule  recorded.number
1  CC1(C)CC(=O)C(C(=O)c2cnc(-c3ccccc3)n(-c3ccccc3)c2=O)=C(O)C1               75
2  COCCCn1c(-c2cccc(Br)c2)ncc(C(=O)C2=C(O)CCCC2=O)c1=O               65
3  CCCCn1c(-c2cc(F)cc(F)c2)ncc(C(=O)C2=C(O)C3CCC(C3)C2=O)c1=O (centres unmarked)               98
4  CCc1ccc(-n2c(-c3ccccc3)ncc(C(=O)C3=C(O)CCCC3=O)c2=O)cc1               70
5  CCCn1c(-c2cccc(Cl)c2)ncc(C(=O)C2=C(O)CCCC2=O)c1=O               70
6  COCCCn1c(-c2cccc(F)c2)ncc(C(=O)C2=C(O)C3CCC(C3)C2=O)c1=O (centres unmarked)              100
7  CCc1ccccc1-n1c(-c2ccccc2)ncc(C(=O)C2=C(O)CCCC2=O)c1=O               95
8  O=C1CCCC(O)=C1C(=O)c1cnc(-c2ccc(F)cc2)n(C2CCCCC2)c1=O               85

---

# Test system: goosegrass (Eleusine indica)
# method summary: Test B pre-/postemergence plant response
# Assay type: in vivo
# assay context: Postemergence, 125 g ai/ha; visual rating after 13 to 15 days, scale 0 (no effect) to 100 (complete control)
endpoint: Plant response rating, Goosegrass

> print(dat)
                            molecule.smiles  result
1  O=C1CCCC(O)=C1C(=O)c1cnc(-c2ccsc2)n(-c2ccccc2)c1=O      75
2  Cc1ccccc1-c1ncc(C(=O)C2=C(O)CCCC2=O)c(=O)n1-c1ccccc1      80
3  Cn1c(-c2ccccc2)ncc(C(=O)C2=C(O)CCCC2=O)c1=O      65
4  Cc1ccccc1-n1c(-c2ccccc2)ncc(C(=O)C2=C(O)CCCC2=O)c1=O      98

---

# Tested on: corn (Zea mays)
# method summary: Test B pre-/postemergence plant response
# Assay type: in vivo
# assay context: Postemergence, 125 g ai/ha; scale 0 to 100 (0 no effect, 100 complete control)
endpoint: Plant response rating, Corn

> print(dat)
                                    molecule                     endpoint  recorded.number
 1  O=C1CCCC(O)=C1C(=O)c1cnc(-c2ccccc2)n(C2CCSCC2)c1=O  Plant response rating, Corn               45
 2  COc1ccc(-n2c(-c3ccccc3)ncc(C(=O)C3=C(O)CCCC3=O)c2=O)cc1OC  Plant response rating, Corn               75
 3  CCCn1c(-c2cccc(Br)c2)ncc(C(=O)C2=C(O)CCCC2=O)c1=O  Plant response rating, Corn               45
 4  COCCn1c(-c2ccsc2)ncc(C(=O)C2=C(O)C3CCC(C3)C2=O)c1=O (stereo not shown)  Plant response rating, Corn               85
 5  O=C1CCCC(O)=C1C(=O)c1cnc(-c2cccc(F)c2)n(C2CCCCC2)c1=O  Plant response rating, Corn               75
 6  CCCn1c(-c2cccc(C(F)(F)F)c2)ncc(C(=O)C2=C(O)CCCC2=O)c1=O  Plant response rating, Corn               40
 7  COCCn1c(-c2cccc(C)c2)ncc(C(=O)C2=C(O)CCCC2=O)c1=O  Plant response rating, Corn               25
 8  COCCn1c(-c2cccc(F)c2)ncc(C(=O)C2=C(O)CCCC2=O)c1=O  Plant response rating, Corn               75
 9  CCc1ccc(-n2c(-c3ccccc3)ncc(C(=O)C3=C(O)CCCC3=O)c2=O)cc1  Plant response rating, Corn               75
10  CCCCn1c(-c2cc(F)cc(F)c2)ncc(C(=O)C2=C(O)CCCC2=O)c1=O  Plant response rating, Corn               55

---

# System: corn (Zea mays)
# method summary: Test B pre-/postemergence plant response
# Type: in vivo
# assay context: 31 g ai/ha, postemergence; scale 0 to 100, 0 is no effect, 100 is complete control
Each entry gets Not satisfied if its Plant response rating, Corn stays under 10, and Satisfied if its Plant response rating, Corn is 10 or above.

> print(dat)
                            molecule.smiles  classification
1  CCCCCn1c(-c2ccccc2)ncc(C(=O)C2=C(O)CCCC2=O)c1=O       Satisfied
2  O=C1CCCC(OC(=O)C2CC2)=C1C(=O)c1cnc(-c2ccccc2)n(-c2ccccc2)c1=O       Satisfied
3  COCCn1c(-c2ccccc2)ncc(C(=O)C2=C(O)CCCC2=O)c1=O       Satisfied
4  CC(C)n1c(-c2ccccc2)ncc(C(=O)C2=C(O)CCCC2=O)c1=O   Not satisfied
5  Cc1ccc(-c2ncc(C(=O)C3=C(O)CCCC3=O)c(=O)n2-c2ccccc2)cc1   Not satisfied
6  CCCCn1c(-c2cc(F)cc(F)c2)ncc(C(=O)C2=C(O)CCCC2=O)c1=O       Satisfied

---

Measured Plant response rating, Blackgrass values are reported for all entries that follow.
# System: blackgrass (Alopecurus myosuroides)
# method summary: Test B pre-/postemergence plant response
# Assay type: in vivo
# assay context: Postemergence, 250 g ai/ha; scale 0 to 100 (0 no effect, 100 complete control)
# Source text: […] Treated plants and controls were maintained in a greenhouse for 13 to 15 days, after which time all treated plants were visually evaluated and compared to controls. […]
endpoint: Plant response rating, Blackgrass

> print(dat)
                                   molecule  recorded.number
1  CCCc1ncc(C(=O)C2=C(O)CCCC2=O)c(=O)n1CC1CCCO1 (stereo not drawn)               45
2  O=C1CCCC(O)=C1C(=O)c1cnc(-c2ccccc2Br)n(-c2ccccc2)c1=O                5
3  Cc1cc(-n2c(-c3ccccc3)ncc(C(=O)C3=C(O)CCCC3=O)c2=O)ccc1F               50
4  CCCCn1c(-c2cc(F)cc(F)c2)ncc(C(=O)C2=C(O)CCCC2=O)c1=O               60
5  CCCn1c(-c2ccc(F)cc2)ncc(C(=O)C2=C(O)CCCC2=O)c1=O               45
6  O=C1CCCC(OC(=O)C2CC2)=C1C(=O)c1cnc(-c2ccccc2)n(-c2ccccc2)c1=O               10

---

# System: bermudagrass (Cynodon dactylon)
# method summary: Test B pre-/postemergence plant response
# Type: in vivo
# assay context: Postemergence, 125 g ai/ha; visual rating after 13 to 15 days, scale 0 (no effect) to 100 (complete control)
Measured Plant response rating, Bermudagrass values are reported for all entries that follow.
endpoint: Plant response rating, Bermudagrass

> print(dat)
                            molecule.smiles  recorded.number
1  CCCc1ncc(C(=O)C2=C(O)CCCC2=O)c(=O)n1-c1ccccc1C               90
2  CC(C)n1c(-c2ccccc2)ncc(C(=O)C2=C(O)CCCC2=O)c1=O               75
3  O=C1CCCC(O)=C1C(=O)c1cnc(-c2ccsc2)n(-c2ccccc2)c1=O              100
4  O=C1CCCC(O)=C1C(=O)c1cnc(-c2ccccc2Br)n(-c2ccccc2)c1=O               80
5  Cc1ccccc1-c1ncc(C(=O)C2=C(O)CCCC2=O)c(=O)n1-c1ccccc1               85
6  Cc1cc(-n2c(-c3ccccc3)ncc(C(=O)C3=C(O)CCCC3=O)c2=O)ccc1F               98
7  O=C1CCCC(O)=C1C(=O)c1cnc(-c2cccc(Cl)c2)n(-c2ccc(Cl)cc2)c1=O               98
8  Cc1c(Cl)cccc1-n1c(-c2ccccc2)ncc(C(=O)C2=C(O)CCCC2=O)c1=O              100

---

# System: large crabgrass (Digitaria sanguinalis)
# method summary: Test A pre-/postemergence plant response
# Format: in vivo
# assay context: Preemergence, 500 g ai/ha; visual injury, 0 to 100 scale (0 no effect, 100 complete control), approx. ten days
endpoint: Plant response rating, Crabgrass, Large

> print(dat)
                                    compound                                 endpoint  recorded.number
 1  COCCn1c(-c2ccccc2)ncc(C(=O)C2=C(O)CCCC2=O)c1=O  Plant response rating, Crabgrass, Large              100
 2  CC(C)n1c(-c2ccccc2)ncc(C(=O)C2=C(O)CCCC2=O)c1=O  Plant response rating, Crabgrass, Large               90
 3  CCCc1ncc(C(=O)C2=C(O)CCCC2=O)c(=O)n1Cc1cccc(OC(F)(F)F)c1  Plant response rating, Crabgrass, Large               50
 4  CCCn1c(-c2ccc3ccccc3c2)ncc(C(=O)C2=C(O)CCCC2=O)c1=O  Plant response rating, Crabgrass, Large               10
 5  O=C1CCCC(O)=C1C(=O)c1cnc(-c2ccccc2Cl)n(-c2ccccc2)c1=O  Plant response rating, Crabgrass, Large               60
 6  O=C1CCCC(O)=C1C(=O)c1cnc(-c2ccccc2)n(-c2cccc(F)c2)c1=O  Plant response rating, Crabgrass, Large               90
 7  CCCCn1c(-c2cccc(Cl)c2)ncc(C(=O)C2=C(O)CCCC2=O)c1=O  Plant response rating, Crabgrass, Large              100
 8  CCCn1c(-c2ccc3c(c2)OCCO3)ncc(C(=O)C2=C(O)CCCC2=O)c1=O  Plant response rating, Crabgrass, Large               80
 9  O=C1CCCC(O)=C1C(=O)c1cnc(-c2ccccc2)n(CC2CCCO2)c1=O (centres unmarked)  Plant response rating, Crabgrass, Large              100
10  C=CCn1c(-c2ccccc2)ncc(C(=O)C2=C(O)CCCC2=O)c1=O  Plant response rating, Crabgrass, Large               90
11  CCCn1c(-c2cc(F)cc(F)c2)ncc(C(=O)C2=C(O)CCCC2=O)c1=O  Plant response rating, Crabgrass, Large              100
12  CCCn1c(-c2ccc(F)cc2)ncc(C(=O)C2=C(O)CCCC2=O)c1=O  Plant response rating, Crabgrass, Large              100
13  Cc1ccccc1-n1c(-c2cccc(Cl)c2)ncc(C(=O)C2=C(O)CCCC2=O)c1=O  Plant response rating, Crabgrass, Large               80
14  CCCCc1ncc(C(=O)C2=C(O)CCCC2=O)c(=O)n1-c1ccc(C)cc1  Plant response rating, Crabgrass, Large               90
15  O=C1CCCC(O)=C1C(=O)c1cnc(C2CCCCC2)n(-c2ccccc2)c1=O  Plant response rating, Crabgrass, Large               80
16  CCCc1ncc(C(=O)C2=C(O)CCCC2=O)c(=O)n1CC1CCCO1 (centres unmarked)  Plant response rating, Crabgrass, Large               90
17  COCCCn1c(-c2cccc(Br)c2)ncc(C(=O)C2=C(O)CCCC2=O)c1=O  Plant response rating, Crabgrass, Large               90
